Reference for the values: paper PMC6081956

# Test Target: PXR-LBD (Homo sapiens, UniProt O75469)
# Sequence (O75469 111-434): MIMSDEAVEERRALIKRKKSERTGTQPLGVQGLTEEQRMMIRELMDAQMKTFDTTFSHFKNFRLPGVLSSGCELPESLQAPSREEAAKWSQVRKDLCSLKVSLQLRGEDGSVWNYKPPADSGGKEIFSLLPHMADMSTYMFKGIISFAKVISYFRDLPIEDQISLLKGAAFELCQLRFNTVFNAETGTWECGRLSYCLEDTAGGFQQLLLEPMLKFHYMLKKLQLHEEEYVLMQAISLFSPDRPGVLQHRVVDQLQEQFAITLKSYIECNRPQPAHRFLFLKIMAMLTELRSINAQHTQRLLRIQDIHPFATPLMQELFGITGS
Measured Quantity: pIC50
Keep in mind that pIC50 stands for -log10 of concentration in molar terms.

[Q] # pIC50 lookup, item COc1ccc(C2Nc3ccc(Cl)cc3[C@@](C#CC3CC3)(C(F)(F)F)O2)cc1 (stereo partly shown) [analog 9]
[A] 4.41
